Tested on: Staphylococcus aureus
Test: Antimicrobial activity against Staphylococcus aureus assessed as 99.9 % growth inhibition after 18 hrs by zone-of-inhibition assay
Format: functional
Readings of Activity for the listed compounds

Below, each entry is followed by its recorded Activity result.
Cc1cc(O)c2c(c1)[C@@H](O)CCC2=O [4S-SHINANOLONE]    >1000 µg/mL
COc1cc2ccc(=O)oc2cc1O [SCOPOLETIN]    >1000 µg/mL
CC1=CC(=O)c2c(O)cccc2C1=O [PLUMBAGIN]    600 µg/mL
CC1=CC(=O)c2c(ccc(C3=C(C)C(=O)c4cccc(O)c4C3=O)c2O)C1=O [CHITRANONE]    >1000 µg/mL

Query (compound): C=C(C)[C@@H]1CC[C@]2(C)CC[C@]3(C)[C@H](CC[C@@H]4[C@@]5(C)CC[C@H](O)C(C)(C)[C@@H]5CC[C@]43C)[C@@H]12 [LUPEOL] ; field requested: Activity
>1000 µg/mL

Query (compound): Cc1cc(O)c2c(c1)C(=O)C=CC2=O [RAMENTACEONE] ; field requested: Activity
>1000 µg/mL

Query (compound): COC(=O)c1c(O)cc(C)cc1O ; field requested: Activity
>1000 µg/mL
